The measurements presented in this section are drawn from ChEMBL document CHEMBL1201862.

system: HCT-15; experiment: NCI tumour cell line growth inhibition, 48 h
outcome-measure: GI50 (µM)
Write down the numeric answer in µM and omit the unit.

CC(=O)Oc1ccn2nc(C)c(Br)c2c1: 65.2

Would you kindly look at the next entry?
Task: Query (compound): Cc1ccc(-c2c(C#N)c(-c3ccc(Cl)cc3)c(C#N)c(=O)n2NS(=O)(=O)c2ccc(C)cc2)cc1 ; field requested: GI50
Result: 28.2

* * *

tested on: SW-620; assay: NCI tumour cell line growth inhibition, 48 h
Calls of active or inactive are those of the source. Cut-off read from the data, not from the text of the source: active = GI50 up to about 1.1 µM and inactive = higher.
# GI50 values compiled below

Example entries and their recorded answers appear below.
c1ccc(Cc2nc(Cc3n[nH]c(Cc4ccccc4)n3)n[nH]2)cc1: > 100 µM (inactive)
CCCNCc1nc2ccc(Br)cc2c(=O)n1CCC: 13.7 µM (inactive)

From here, focus on the item given below.
Task: Tell me the measured GI50 of CCCCN1C(=O)C2c3[nH]c4ccccc4c3C3CCCCC3C2C1=O.CCCCN1C(=O)C2c3[nH]c4ccccc4c3[C@@H]3CCCCC3C2C1=O (stereo not drawn) , please.
Result: 37.8 µM (inactive)
